Target: AChE (Homo sapiens)
Construct: purchased Sigma-Aldrich Chemical Co
Assay: biochemical
Format: biochemical
Measured property: IC50 (µM)
Answers are plain numbers, in µM.

### Prompt Quick one: give measured IC50 for O=C(CCCCl)OC[C@@H]1CCCN2CCCC[C@H]12
### Response 39.5

We next turn to a different molecule, shown below.
### Prompt Consider the molecule O=C(Nc1ccc(Cl)c(Cl)c1)OC[C@@H]1CCCN2CCCC[C@H]12 . State its measured IC50.
### Response 99.4

====

Biological target: AChE (Homo sapiens, UniProt P22303)
Construct: purchased Sigma-Aldrich Chemical Co
Sequence (P22303 32-614): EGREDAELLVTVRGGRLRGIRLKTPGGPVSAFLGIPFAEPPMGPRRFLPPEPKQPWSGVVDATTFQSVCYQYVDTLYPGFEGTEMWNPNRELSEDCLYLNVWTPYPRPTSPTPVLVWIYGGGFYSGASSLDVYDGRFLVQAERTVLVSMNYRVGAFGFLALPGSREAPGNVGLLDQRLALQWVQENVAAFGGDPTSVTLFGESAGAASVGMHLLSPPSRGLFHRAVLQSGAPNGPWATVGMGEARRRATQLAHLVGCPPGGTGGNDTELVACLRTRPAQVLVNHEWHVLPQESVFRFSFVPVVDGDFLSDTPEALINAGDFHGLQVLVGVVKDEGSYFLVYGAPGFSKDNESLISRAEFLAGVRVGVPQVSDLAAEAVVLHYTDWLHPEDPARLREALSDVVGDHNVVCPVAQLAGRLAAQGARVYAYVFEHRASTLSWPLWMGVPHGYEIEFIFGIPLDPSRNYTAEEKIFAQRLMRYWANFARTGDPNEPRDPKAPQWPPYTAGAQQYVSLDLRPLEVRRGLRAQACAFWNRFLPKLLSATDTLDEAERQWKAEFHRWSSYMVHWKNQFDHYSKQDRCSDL
Test: biochemical
Assay type: biochemical
Conditions: N.A.: no activity was observed at the highest concentration tested (150 µM); 5–7 tested concentrations; read-out: AChE inhibitory activity IC50
Task for the reader: assign each of the following compounds its reported IC50.
Numbers only, in µM.

### Prompt For the compound O=C1CC(C(=O)OC[C@@H]2CCCN3CCCC[C@H]23)C2(CCCCC2)O1 (some centres unmarked) , give its reported IC50.
### Response 68.9

### Prompt Fill in IC50 for record COc1ccccc1/C=C/C(=O)OC[C@@H]1CCCN2CCCC[C@H]12
### Response 89.6

### Prompt Respond only with IC50 recorded for CCOc1cc(C=O)ccc1OCc1cn(C[C@@H]2CCCN3CCCC[C@H]23)nn1
### Response 73.4

### Prompt Assign IC50 to the following record: COc1cccc(-c2cn(C[C@@H]3CCCN4CCCC[C@H]34)nn2)c1
### Response 51.8

### Prompt Tell me its IC50 given CC1(C)CC(=O)c2c(C(=O)OC[C@@H]3CCCN4CCCC[C@H]34)coc2C1 as the entry.
### Response 24.4

### Prompt Supply reported IC50 belonging to this compound: CCc1cc(C(=O)OCc2cn(C[C@@H]3CCCN4CCCC[C@H]34)nn2)c(O)c(C(C)(C)C)c1
### Response 141

### Prompt Give a short answer stating reported IC50 for COc1cc(-c2cn(C[C@@H]3CCCN4CCCC[C@H]34)nn2)ccc1OCc1ccccc1 .
### Response 7.2

Others:
### Prompt Return reported IC50. Input compound: Cc1cc(C)c(C(=O)OC[C@@H]2CCCN3CCCC[C@H]23)cc1C
### Response 74.1
